assay_system: AEDANS-T34C/T110C-CaM (Homo sapiens, UniProt P0DP23, T111C/T35C)
protocol_notes: Equilibrium fluorescence titration of AEDANS-T34C/T110C-CaM with Cx32 208–226
Format: binding
Where no end group is shown, it is not given here.
reported_metric: Kd (µM)
Kindly answer with a numeric value in µM, unit omitted.

Prompt line: State its Kd for this sequence: EVVYLIIRACARRAQRRSN [Cx32 208–226]
Response line: 3.45
